# Test Target: BRAF V600E (Homo sapiens, UniProt P15056, V600E)
# Construct: endogenous C-terminal HiBiT fusion tag on BRAF V600E allele; endogenous in cells; host or cells: A375 clone 1F10 (CRISPR-Cas9 knock-in of the HiBiT tag; parental A375 from ATCC)
# Sequence (P15056 whole entry V600E, the tested form may be a part): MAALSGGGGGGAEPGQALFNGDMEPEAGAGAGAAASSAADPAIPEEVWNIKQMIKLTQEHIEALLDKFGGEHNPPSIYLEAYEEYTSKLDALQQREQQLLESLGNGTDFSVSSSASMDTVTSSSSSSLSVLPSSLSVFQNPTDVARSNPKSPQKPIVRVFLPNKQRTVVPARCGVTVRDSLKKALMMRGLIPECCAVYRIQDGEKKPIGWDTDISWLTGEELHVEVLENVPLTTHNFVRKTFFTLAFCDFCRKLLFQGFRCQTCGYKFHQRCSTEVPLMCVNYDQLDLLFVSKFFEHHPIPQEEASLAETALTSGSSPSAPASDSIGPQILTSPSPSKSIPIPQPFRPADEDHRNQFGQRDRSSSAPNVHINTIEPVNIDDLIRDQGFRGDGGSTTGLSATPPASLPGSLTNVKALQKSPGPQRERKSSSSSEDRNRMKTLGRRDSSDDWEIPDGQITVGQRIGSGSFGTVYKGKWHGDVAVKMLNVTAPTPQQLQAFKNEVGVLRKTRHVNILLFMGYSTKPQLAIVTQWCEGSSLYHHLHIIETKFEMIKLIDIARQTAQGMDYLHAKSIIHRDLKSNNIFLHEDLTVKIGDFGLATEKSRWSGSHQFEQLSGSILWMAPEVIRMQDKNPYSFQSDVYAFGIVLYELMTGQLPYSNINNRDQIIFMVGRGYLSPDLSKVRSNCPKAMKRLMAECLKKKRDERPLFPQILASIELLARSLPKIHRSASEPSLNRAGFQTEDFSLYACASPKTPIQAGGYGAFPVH
# Test Summary: BRAF HiBiT degradation assay, C-terminal HiBiT-tagged BRAF V600E A375 cells (clone 1F10), Nano-Glo HiBiT Lytic assay
# Assay type: cell-based
# Experimental Conditions: A-375; A375 (BRAF V600E); percentage protein degraded at maximal compound effect relative to DMSO
Value Type: Dmax

CCCS(=O)(=O)Nc1cccc(-c2nc(C(C)(C)C)sc2-c2ccnc(NC3CC4(C3)CN(C(=O)CCCCCc3ccc5c(c3)C(=O)N(C3CCC(=O)NC3=O)C5)C4)n2)c1F (racemic) [Compound 150]: 30 to 70%
CCN(C)S(=O)(=O)Nc1cccc(-c2nc(C(C)(C)C)sc2-c2ccnc(Nc3ccc(N4CCN(CC5CCN(c6ccc(C7CCC(=O)NC7=O)cn6)CC5)CC4)cn3)n2)c1F (racemic) [Compound 126]: > 70%
CCCS(=O)(=O)Nc1cccc(-c2nc(C3CCN(C(=O)C4(C)CCN(C(=O)CC5CCN(c6ccc(C7CCC(=O)NC7=O)cn6)CC5)CC4)CC3)sc2-c2ccnc(N)n2)c1F (racemic) [Compound 194]: > 70%

====

# Test Target: BRAF D594G (Homo sapiens, UniProt P15056, D594G)
# Construct: Horizon Discovery (HCT-116 BRAF−/− cells); host or cells: HCT-116 BRAF−/− cells, clone 63, lentiviral transduction
# Sequence (P15056 whole entry D594G): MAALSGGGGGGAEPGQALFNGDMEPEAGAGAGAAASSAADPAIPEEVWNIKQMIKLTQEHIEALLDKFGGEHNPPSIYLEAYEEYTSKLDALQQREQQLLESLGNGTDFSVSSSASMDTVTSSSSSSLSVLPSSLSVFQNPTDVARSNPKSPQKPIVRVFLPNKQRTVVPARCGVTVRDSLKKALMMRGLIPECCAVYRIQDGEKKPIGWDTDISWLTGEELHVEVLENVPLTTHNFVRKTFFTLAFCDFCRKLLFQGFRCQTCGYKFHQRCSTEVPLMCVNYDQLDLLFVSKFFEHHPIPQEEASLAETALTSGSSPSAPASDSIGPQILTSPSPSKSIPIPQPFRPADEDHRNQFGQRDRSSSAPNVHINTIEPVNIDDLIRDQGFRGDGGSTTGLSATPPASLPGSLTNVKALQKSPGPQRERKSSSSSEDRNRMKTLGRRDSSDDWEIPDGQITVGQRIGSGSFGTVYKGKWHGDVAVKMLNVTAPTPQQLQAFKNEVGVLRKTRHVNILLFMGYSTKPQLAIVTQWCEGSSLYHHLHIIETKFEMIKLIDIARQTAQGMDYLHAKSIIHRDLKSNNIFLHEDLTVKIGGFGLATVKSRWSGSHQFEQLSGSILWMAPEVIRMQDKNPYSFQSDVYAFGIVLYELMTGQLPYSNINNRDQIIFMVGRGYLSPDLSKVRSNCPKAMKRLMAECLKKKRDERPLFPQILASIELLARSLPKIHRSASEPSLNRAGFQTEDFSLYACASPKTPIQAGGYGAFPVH
# Test Summary: BRAF HiBiT degradation assay, C-terminal HiBiT-tagged BRAF D594G overexpressed in HCT-116 BRAF−/− cells (clone 63), Nano-Glo HiBiT Lytic assay
# Format: cell-based
# Experimental Conditions: HCT-116; BRAF D594G; percentage protein degraded at maximal compound effect relative to DMSO
Value Type: Dmax

CCN(C)S(=O)(=O)Nc1cccc(-c2nc(C3CCN(C(=O)C4CCN(C(=O)C5CCN(c6ccc(C7CCC(=O)NC7=O)cn6)CC5)CC4)CC3)sc2-c2ccnc(NC(C)C)n2)c1F (racemic): 30 to 70%
CCCS(=O)(=O)Nc1cccc(-c2cn(-c3ccc(N4CCN(CC5CCN(c6ccc(C7CCC(=O)NC7=O)c(F)c6)CC5)CC4)cc3)nc2-c2ccncc2)c1F (racemic): 30 to 70%
CCCS(=O)(=O)Nc1cccc(-c2nc(C3CCN(C(=O)CN4CCC5(CC4)CN(c4ccc6c(c4)C(=O)N(C4CCC(=O)NC4=O)C6=O)C5)CC3)sc2-c2ccnc(NC)n2)c1F (racemic): 30 to 70%
CCCS(=O)(=O)Nc1cccc(-c2nc(C)sc2-c2ccnc(Nc3ccc(N4CCN(CC5CCN(c6ccc(C7CCC(=O)NC7=O)cn6)CC5)CC4)cn3)n2)c1F (racemic): 30 to 70%
CCCS(=O)(=O)Nc1cccc(-c2nc(-c3ccc(N4CCN(CC5CCN(c6ccc([C@@H]7CCC(=O)NC7=O)cc6)CC5)CC4)cc3)sc2-c2ccnc(N)n2)c1F: 30 to 70%
CCCS(=O)(=O)Nc1cccc(-c2nc(C(C)(C)C)sc2-c2ccnc(Nc3ccc(C4CCN(CC5CCN(c6ccc([C@H]7CCC(=O)NC7=O)cc6)CC5)CC4)cc3)n2)c1F: 30 to 70%
CCCS(=O)(=O)Nc1cccc(-c2nc(C(C)(C)C)sc2-c2ccnc(Nc3ccc(C4CCN(CC[C@H]5CCN(c6ccc(C7CCC(=O)NC7=O)cn6)C5)CC4)cc3)n2)c1F (mixture of isomers): 30 to 70%
CCCS(=O)(=O)Nc1cccc(-c2nc(C3CCN(C(=O)C4CCN(C(=O)C5CCN(c6ccc(C7CCC(=O)NC7=O)cn6)CC5)CC4)CC3)sc2-c2ccncn2)c1F (racemic): 30 to 70%
CCCS(=O)(=O)Nc1cccc(-c2nc(C(C)(C)C)sc2-c2ccnc(Nc3ccc(N4CCN(CC5CCN(c6ccc(C7CCC(=O)NC7=O)cn6)CC5)CC4)cc3)n2)c1F (racemic): 30 to 70%
CCCS(=O)(=O)Nc1cccc(-c2nc(C(C)(C)C)sc2-c2ccnc(Nc3ccc4c(c3)CCN(C(=O)CN3CCC(c5ccc(NC6CCC(=O)NC6=O)cc5)CC3)C4)n2)c1F (racemic): < 30%
CCCS(=O)(=O)Nc1cccc(-c2nc(C(C)(C)C)sc2-c2ccnc(NC3CC4(CCN(CC5CCN(c6ccc7c(=O)n(C8CCC(=O)NC8=O)ccc7c6)CC5)CC4)C3)n2)c1F (racemic): < 30%
CCCS(=O)(=O)Nc1cccc(-c2nc(C3(C)CCN(C(=O)CN4CCC5(CC4)CN(c4ccc6c(c4)C(=O)N(C4CCC(=O)NC4=O)C6=O)C5)CC3)sc2-c2ccnc(N)n2)c1F (racemic): 30 to 70%
CCCS(=O)(=O)Nc1cccc(-c2nc(C(C)(C)C)sc2-c2ccnc(Nc3cnn(C4CCN(C(=O)[C@H]5CC[C@H](Oc6ccc(C7CCC(=O)NC7=O)cn6)CC5)CC4)c3)n2)c1F (mixture of isomers): < 30%
